Test system: A498
Test: cells
Settings: Homo sapiens, A498, 48 h, read-out: Median Growth Inhibitory Concentration (GI50)
MEASUREMENT KIND: GI50 (µM)
Note: unit µM is implicit; provide only the numeric part.

Req: Recall and state the measured GI50 for O=C(C=Cc1ccc(F)cc1F)C=Cc1ccc(F)cc1F [EF9] .
Resp: 2.4

Req: Give the value of GI50 reported for the following: O=C1C(=Cc2ccccc2O)CCCC1=Cc1ccccc1O [EF4]
Resp: 2.2

Req: Please give measured GI50 of the following entry: OC(CCc1ccc(F)cc1F)CCc1ccc(F)cc1F [EF19, 1,5-Bis(2,4-difluorophenyl)-pentan-3-ol]
Resp: 16.3

Req: For the compound CC(=O)O.O=C1C(=Cc2ccccc2F)CNCC1=Cc1ccccc1F [EF24] , give its reported GI50.
Resp: 0.9

Req: Give recorded GI50. COc1cc(/C=C/C(=O)CC(=O)/C=C/c2ccc(O)c(OC)c2)ccc1O [Curcumin]
Resp: 15.8

Req: Look up and report measured GI50 for this entry: CC1(/C=C/c2ccccc2O)C=Cc2ccccc2O1 (stereo not drawn) [EF7]
Resp: 17.2

// data source = patent US7371766B2
